# Method description: qHTS assay for identifying genotoxic compounds that show differential cytotoxicity against isogenic chicken DT40 cell lines with known DNA damage response pathways - Rev3 mutant cell line (AID 743014); further: nearly all actives have a fitted effect of over 55% in size
# Study conditions: chicken DT40 Rev3-/- viability, CellTiter-Glo, 40 h; series mostly up to 68.4 µM
Inconclusive results are not listed. Calls of active or inactive are those of the source. The call rests on the fitted dose curve; in most records, active means well fitted cell-killing curve with a large enough effect in the repeat runs; inconclusive means weak or mixed curves, or effect the other way; inactive means no such curve, though single readings can be large or run the other way.
// one of T (active), F (inactive), no free text

- Molecule: "Nc1ncnc(Nc2ccc(Cl)cc2)n1"
  Qualitative label: "F"
- Molecule: "CCOC(=O)[C@H](CCc1ccccc1)N[C@@H](C)C(=O)N1CC2(C[C@H]1C(=O)O)SCCS2"
  Qualitative label: "F"
- Molecule: "C[C@]12CC[C@@H]3c4ccc(OC(=O)c5ccccc5)cc4CC[C@H]3[C@@H]1CC[C@@H]2O"
  Qualitative label: "T"
- Molecule: "CN1CCN(C(c2ccccc2)c2ccc(Cl)cc2)CC1 (centres undefined)"
  Qualitative label: "T"
- Molecule: "CC(=O)OC[C@H]1O[C@@H](O[C@H]2[C@H](O)[C@@H](OC(=O)c3ccccc3C(=O)O)[C@H](O)O[C@@H]2COC(C)=O)[C@H](O)[C@@H](OC(=O)c2ccccc2C(=O)O)[C@@H]1O"
  Qualitative label: "F"
- Molecule: "[O]=[Bi][O]C(=O)[O][Bi]=[O]"
  Qualitative label: "F"

Req: Short answer needed: outcome of this test for CS(=O)(=O)c1ccc(C2=C(c3ccccc3)C(=O)OC2)cc1 ?
Resp: F

Req: Status in this test for CN[C@@H]1CCc2[nH]c3ccc(C(N)=O)cc3c2C1 ?
Resp: F

Req: Identify the outcome logged in this assay for the molecule shown: COc1ccc(CCNC[C@H](O)c2ccc(O)cc2)cc1OC
Resp: F

Req: Answer briefly: the call reported for O=C(O)CCC/C=C\C[C@@H]1[C@@H](/C=C/[C@@H](O)COc2cccc(C(F)(F)F)c2)[C@H](O)C[C@@H]1O in this assay.
Resp: F

Req: Dear all, I need the recorded test outcome for CCC(=O)OCC(=O)[C@@]1(OC(=O)CC)[C@@H](C)C[C@H]2[C@@H]3CCC4=CC(=O)C=C[C@]4(C)[C@@]3(F)[C@@H](O)C[C@@]21C , thank you.
Resp: T

Req: Check the results log: what was the call for CCCCC(=O)OCC(=O)[C@]1(O)Cc2c(O)c3c(c(O)c2[C@@H](O[C@H]2C[C@H](NC(=O)C(F)(F)F)[C@H](O)[C@H](C)O2)C1)C(=O)c1c(OC)cccc1C3=O ?
Resp: T

Req: Test call, this molecule: CCCCCc1ccc(C)cc1O
Resp: F

Req: Recorded call for CCCCC(O)c1ccccc1 (centres undefined) ?
Resp: F

----------
# Method description: qHTS assay for small molecules that induce genotoxicity in human embryonic kidney cells expressing luciferase-tagged ATAD5 (AID 651632); further: nearly all actives have a fitted effect of over 15% in size
# Study conditions: HEK293T ATAD5-luciferase induction, 16 h; series mostly up to 83.3 µM
# Source text: U.S. Tox21 Program National Center for Advancing Translational Sciences [NCATS] NIH Chemical Genomics Center [NCGC] U.S. Environmental Protection Agency [EPA] National Institutes of Environmental Health Sciences [NIEHS] National Toxicology Program [NTP] U.S. Food and Drug Administration [FDA] Tox21 Assay Overview: As cancer cells divide rapidly and during every cell division they need to duplicate their genome by DNA replication. The failure to do so results in the cancer cell death. […]
Inconclusive results are not listed. Activity calls are given as the source filed them. Calls come from the whole dose curve; as a rule, active = well fitted activation curve with a large enough effect in the repeat runs; inconclusive = weak or mixed curves; inactive = no such curve, though single readings can be large or run the other way.
# output must be one of active, inactive

- Molecule: "CC[C@@H]1/C=C(\\C)C[C@H](C)C[C@H](OC)[C@H]2O[C@@](O)(C(=O)C(=O)N3CCCC[C@H]3C(=O)O[C@H](/C(C)=C/[C@@H]3CC[C@@H](Cl)[C@H](OC)C3)[C@H](C)[C@@H](O)CC1=O)[C@H](C)C[C@@H]2OC"
  Qualitative label: "inactive"
- Molecule: "C=C[C@]1(C)C[C@@H](OC(=O)CSCCN(CC)CC)[C@]2(C)[C@H](C)CC[C@]3(CCC(=O)[C@H]32)[C@@H](C)[C@@H]1O"
  Qualitative label: "inactive"

Req: For CCN(CC)c1ccc(C(=C2C=CC(=[N+](CC)CC)C=C2)c2ccccc2)cc1 , what call appears in the results of this test?
Resp: active

Req: Outcome logged for CCC(=O)c1ccc2c(c1)N(CCCN1CCN(CCO)CC1)c1ccccc1S2 in this assay:
Resp: inactive

Req: How was CC(=O)O[C@H]1CC[C@@]2(C)C(=CC[C@H]3[C@@H]4CC[C@H](C(C)=O)[C@@]4(C)CC[C@@H]32)C1 classified in this test?
Resp: inactive

Req: Name the outcome recorded for CC(C)(C)c1ccc(CN2CCN(C(c3ccccc3)c3ccc(Cl)cc3)CC2)cc1 (centres undefined) in the assay.
Resp: inactive

Req: Which outcome was entered for the molecule CCCN(CC)C(CC)C(=O)Nc1c(C)cccc1C (centres undefined) in this test?
Resp: inactive

Req: For NS(=O)(=O)c1cc2c(cc1Cl)NC(Cc1ccccc1)NS2(=O)=O (centres undefined) , what call appears in the results of this test?
Resp: inactive

Req: Given CC1CS(=O)(=O)CCN1/N=C/c1ccc([N+](=O)[O-])o1 (centres undefined) , state the outcome it received in this test.
Resp: inactive

Origin of the recorded values: PubChem BioAssay (Tox21)
